molecular target: S21A ForT variant (Streptomyces kaniharaensis, UniProt A0A5S9CYM0, S21A); assay: biochemical
Quantity: Kd (nM)
Kindly answer with a numeric value in nM, unit omitted.

For O=P(O)(O)OC[C@H]1O[C@H](OP(=O)(O)OP(=O)(O)O)[C@H](O)[C@@H]1O [PRPP, 5′-phosphoribose-1′-pyrophosphate] , what is its reported Kd?
350

====

Molecular target: S174A ForT variant (Streptomyces kaniharaensis, UniProt A0A5S9CYM0, S174A)
Sequence (A0A5S9CYM0 1-341 S174A): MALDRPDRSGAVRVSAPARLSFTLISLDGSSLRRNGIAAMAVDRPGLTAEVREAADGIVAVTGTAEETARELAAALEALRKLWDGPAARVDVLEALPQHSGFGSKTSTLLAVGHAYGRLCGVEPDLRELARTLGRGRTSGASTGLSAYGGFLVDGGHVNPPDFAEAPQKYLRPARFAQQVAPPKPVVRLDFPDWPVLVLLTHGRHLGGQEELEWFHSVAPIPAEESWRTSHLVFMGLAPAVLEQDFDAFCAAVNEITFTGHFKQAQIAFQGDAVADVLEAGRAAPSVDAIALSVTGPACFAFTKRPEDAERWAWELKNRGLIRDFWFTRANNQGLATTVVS
Test: biochemical
Quantity: Kd (µM)
Lab book: enter the figure in µM, no units written.

Consider the compound O=P(O)(O)OC[C@H]1O[C@H](OP(=O)(O)OP(=O)(O)O)[C@H](O)[C@@H]1O [PRPP, 5′-phosphoribose-1′-pyrophosphate] and give its measured Kd.
6

====

Target: E211A ForT variant (Streptomyces kaniharaensis, UniProt A0A5S9CYM0, E211A)
Sequence (A0A5S9CYM0 1-341 E211A): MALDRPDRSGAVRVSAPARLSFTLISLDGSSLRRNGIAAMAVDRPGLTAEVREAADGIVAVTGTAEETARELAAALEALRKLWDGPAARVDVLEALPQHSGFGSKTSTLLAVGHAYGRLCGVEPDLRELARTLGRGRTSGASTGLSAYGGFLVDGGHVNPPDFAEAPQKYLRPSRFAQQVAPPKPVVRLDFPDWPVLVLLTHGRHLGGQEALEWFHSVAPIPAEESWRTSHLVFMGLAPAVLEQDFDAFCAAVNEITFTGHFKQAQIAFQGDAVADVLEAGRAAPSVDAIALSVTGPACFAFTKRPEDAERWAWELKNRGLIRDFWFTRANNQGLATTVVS
Assay: biochemical
Quantity: Kd (nM)
Response body: numeric value in nM, unit text excluded.

I am curious: what Kd value has been reported for O=P(O)(O)OC[C@H]1O[C@H](OP(=O)(O)OP(=O)(O)O)[C@H](O)[C@@H]1O [PRPP, 5′-phosphoribose-1′-pyrophosphate] ?
950

====

target: L24A ForT variant (Streptomyces kaniharaensis, UniProt A0A5S9CYM0, L24A); assay: biochemical
Quantity: pKd
A value of pKd is the negative decimal logarithm of a concentration given in moles per litre.

Look up pKd for this compound: O=P(O)(O)OC[C@H]1O[C@H](OP(=O)(O)OP(=O)(O)O)[C@H](O)[C@@H]1O [PRPP, 5′-phosphoribose-1′-pyrophosphate]
5.82

====

molecular target: K263A ForT variant (Streptomyces kaniharaensis, UniProt A0A5S9CYM0, K263A); experiment: biochemical
Quantity: pKd
Schema: pKd number; meaning minus log10 of the concentration expressed in molar units.

Form: Entry = O=P(O)(O)OC[C@H]1O[C@H](OP(=O)(O)OP(=O)(O)O)[C@H](O)[C@@H]1O [PRPP, 5′-phosphoribose-1′-pyrophosphate] | System = K263A ForT variant (Streptomyces kaniharaensis, UniProt A0A5S9CYM0, K263A) | pKd = ____
4.70

// provenance: paper PMC9832568
